Consider the following compounds and their measured residual activity readings.
measurement target: SRSF protein kinase 2 (Homo sapiens) (UniProt P78362)
Sequence (P78362 whole entry, looked up): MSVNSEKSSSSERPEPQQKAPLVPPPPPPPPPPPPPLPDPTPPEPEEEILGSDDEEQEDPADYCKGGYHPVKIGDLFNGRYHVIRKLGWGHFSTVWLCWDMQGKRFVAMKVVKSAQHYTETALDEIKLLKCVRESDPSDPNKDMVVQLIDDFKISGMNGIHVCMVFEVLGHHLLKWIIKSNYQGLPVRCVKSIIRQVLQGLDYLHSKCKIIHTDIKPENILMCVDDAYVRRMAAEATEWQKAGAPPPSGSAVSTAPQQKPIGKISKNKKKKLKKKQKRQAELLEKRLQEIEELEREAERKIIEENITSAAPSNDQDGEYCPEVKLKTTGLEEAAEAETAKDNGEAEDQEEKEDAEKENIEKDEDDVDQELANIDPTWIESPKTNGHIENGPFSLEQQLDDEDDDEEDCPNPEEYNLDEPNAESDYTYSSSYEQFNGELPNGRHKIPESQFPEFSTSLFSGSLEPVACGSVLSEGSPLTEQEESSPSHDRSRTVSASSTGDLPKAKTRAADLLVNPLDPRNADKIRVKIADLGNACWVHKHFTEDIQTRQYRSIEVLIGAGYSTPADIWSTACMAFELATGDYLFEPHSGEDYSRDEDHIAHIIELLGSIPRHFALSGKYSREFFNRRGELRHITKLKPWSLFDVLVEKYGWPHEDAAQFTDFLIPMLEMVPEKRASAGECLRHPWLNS
condition description: at 1 µM

{"chemical smiles": "CC#CC(=O)Nc1cc2c(Nc3ccc(F)c(Cl)c3)ncnc2cn1", "unit abbreviation": "%", "residual activity": 88}
{"chemical smiles": "CC(=O)O/N=C1\\C(=C2\\C(=O)Nc3cc(Br)ccc32)Nc2ccccc21", "unit abbreviation": "%", "residual activity": 102}
{"chemical smiles": "c1ccc(-c2n[nH]c3c2oc2ccccc23)cc1", "unit abbreviation": "%", "residual activity": 98}
{"chemical smiles": "O=C1Nc2cc(Br)ccc2/C1=C1/Nc2ccccc2/C1=N\\O", "unit abbreviation": "%", "residual activity": 88}
{"chemical smiles": "CC(C)n1cnc2c(NCc3ccccc3)nc(NCCCO)nc21", "unit abbreviation": "%", "residual activity": 93}
